Tested on: HT29 colon
Experiment: NCI tumour cell line growth inhibition, 48 h
VALUE_TYPE: TGI (µM)
Field format: number, assumed µM, no unit text.

Consider the reported TGI for these compounds:
COMPOUND: O=C1C(Cl)N(c2cccc([N+](=O)[O-])c2)C1c1c[nH]c2ccccc12 (centres undefined)
MEASURED_TARGET: HT29 colon
TGI [µM]: 43.7

COMPOUND: CC(=O)C1=C(C)N(c2ccc(C)cc2)C2(O)C3=C(C(=O)c4ccccc4C3=O)C(O)=CC12Cl (centres undefined)
MEASURED_TARGET: HT29 colon
TGI [µM]: 60.1

COMPOUND: O=Cc1ccc(CCl)cc1
MEASURED_TARGET: HT29 colon
TGI [µM]: 34.2

COMPOUND: COC(=O)[C@H](CC(C)C)Nc1c(O)c2c(c(O)c1Cl)C(=O)C=CC2=O
MEASURED_TARGET: HT29 colon
TGI [µM]: 9.41

COMPOUND: CCOC(=O)c1[nH]cc(C)c1-c1ccc2c(-c3ccccc3)nc3ccccc3n12
MEASURED_TARGET: HT29 colon
TGI [µM]: 11.9

TGI lookup needed for COc1cc(C2C(Cl)C(=O)N2NC(=O)c2ccc(N)cc2)cc(Br)c1O (centres undefined) , thanks.
41.9

TGI lookup needed for COC(=O)C1=C(OC(=O)/C=C/c2ccc(Cl)cc2)C(C(=O)OC)[C@@]2(O)[C@@H](C(=O)OC)[C@H](C)C[C@@H]1[C@@H]2C(=O)OC (some centres undefined) , thanks.
65.8

TGI lookup needed for `COC(=O)C1=C(C(=O)OC)SC2(S1)C(C(=O)OC)=C(C(=O)OC)Sc1c2ssc1=Nc1ccc(Cl)cc1` , thanks.
1.78

TGI lookup needed for `COc1ccc(Nc2cc(C)nc(NCCCNc3ccnc4cc(Cl)ccc34)n2)cc1` , thanks.
2.67

---

Test system: A498 renal
Experiment: NCI tumour cell line growth inhibition, 48 h; in the data active = GI50 below about 0.43 µM; inactive = the rest
Choose the fitting class; nothing outside active, inactive is accepted.

COMPOUND: Cn1cc(C2=C(c3cn(C)c4ccccc34)C(=O)NC2=O)c2ccccc21
GROUP: inactive

Shifting focus to the compound that follows.
Which result was noted for this compound in the test: `c1ccc2cc(C[n+]3ccn(CCCCCCCCCCn4cc[n+](Cc5ccc6ccccc6c5)c4)c3)ccc2c1`
active

---

Tested on: SK-MEL-5 melanoma
Assay: NCI tumour cell line growth inhibition, 48 h
VALUE_TYPE: GI50

Consider the reported GI50 for these compounds:
COMPOUND: COc1ccc(/C=C2\C=C(c3ccccc3)N(CCc3ccccc3)C2=O)cc1OC
MEASURED_TARGET: SK-MEL-5 melanoma
GI50: 9290 nM

COMPOUND: Clc1ccc(-c2cc(-c3ccccc3)nc(NCCNc3ccnc4cc(Cl)ccc34)n2)cc1
MEASURED_TARGET: SK-MEL-5 melanoma
GI50: 1740 nM

GI50 lookup needed for CC(=O)N1N=C2/C(=C/c3ccc(Cl)cc3)CC(C)CC2C1c1ccc(Cl)cc1 (stereo unspecified) , thanks.
12200 nM

GI50 lookup needed for `COc1cc(-c2cc(-c3cc(OC)c(OC)c(OC)c3)nc3nc(N)[nH]c(=O)c23)ccc1Oc1ccnc2cc(Cl)ccc12` , thanks.
2930 nM

GI50 lookup needed for N#C[Se]CCCNS(=O)(=O)C1CC2C=CC1C2 (stereo unspecified) , thanks.
1410 nM

GI50 lookup needed for CCCCCCCCCCCCOC1C(CNC(=O)C2OC3OC(C)(C)OC3C2NC(=O)Nc2ccc(CC(=O)NC(Cc3ccccc3)C(=O)O)cc2)OC2OC(C)(C)OC21 (stereo unspecified) , thanks.
> 25000 nM

---

System: MDA-MB-231 breast
Test: NCI tumour cell line growth inhibition, 48 h
VALUE_TYPE: TGI (µM)
Field format: number, assumed µM, no unit text.

COMPOUND: CN(C)c1ccc(/C=C/C2=[N+](C)c3ccccc3C2(C)C)cc1
VALUE_TYPE: TGI
RESULT_UNITS: µM
RECORDED_RESULT: 20.9

Form: Entry = `COc1cc(-c2cc(-c3cc(OC)c(OC)c(OC)c3)nc3nc(N)[nH]c(=O)c23)ccc1Oc1ccnc2cc(Cl)ccc12` | System = MDA-MB-231 breast | TGI = ____
24.7

Form: Entry = COC1=CC(c2ccc[nH]2)=N/C1=C\c1[nH]c(C)c(C(=O)CCCCC(=O)Oc2ccc3c(c2)CCC2C3CC[C@]3(C)[C@@H](O)CC[C@@H]23)c1C (stereo not given in full) | System = MDA-MB-231 breast | TGI = ____
8.04

Form: Entry = `CC(=O)Oc1ccc(/C(=C(\C)c2ccc(Cl)cc2)c2ccc(OCCN3CCCCC3)cc2)cc1` | System = MDA-MB-231 breast | TGI = ____
3.89

Form: Entry = COc1ccc(C2=NN(C(=O)c3cc(OC)c(OC)c(OC)c3)C(c3ccc(N(C)C)cc3)C2)cc1 (stereo not given) | System = MDA-MB-231 breast | TGI = ____
8.75

Form: Entry = CC(C)Cc1cc2c(cc1O)CCC1C2CC[C@@]2(C)C1CC[C@@H]2O (stereo not given in full) | System = MDA-MB-231 breast | TGI = ____
20

---

Test system: NCI-H460 lung
Test: NCI tumour cell line growth inhibition, 48 h
VALUE_TYPE: TGI

COMPOUND: COC(=O)C1(C(=O)OC)N=C(C)OC1/C=C/c1ccccc1 (stereo unspecified)
MEASURED_TARGET: NCI-H460 lung
VALUE_TYPE: TGI
RECORDED_RESULT: > 100 µM
//
COMPOUND: CC1CCC2(CC1)NC1=C(CC(C)CC1)C1=C2CC(C)CC1 (stereo unspecified)
MEASURED_TARGET: NCI-H460 lung
VALUE_TYPE: TGI
RECORDED_RESULT: 75.7 µM
//
COMPOUND: COc1ccc2nc3cc(Cl)ccc3c(Sc3ccc([N+](=O)[O-])cc3)c2c1
MEASURED_TARGET: NCI-H460 lung
VALUE_TYPE: TGI
RECORDED_RESULT: > 100 µM
//
COMPOUND: Cn1c(NCC(O)CN2CCCC2)cc(=O)n(C)c1=O (stereo unspecified)
MEASURED_TARGET: NCI-H460 lung
VALUE_TYPE: TGI
RECORDED_RESULT: > 100 µM
//
COMPOUND: OCc1c[te]c(-c2ccccc2)c1
MEASURED_TARGET: NCI-H460 lung
VALUE_TYPE: TGI
RECORDED_RESULT: > 100 µM

Continue with the next compound.
TGI lookup needed for `CC(C)NC(=O)CCN(C(=O)O)S(=O)(=O)c1ccc(NC(=O)c2ccccc2)cc1` , thanks.
> 59.7 µM

---

The following molecules are shown together with reported TGI values.
Test system: SK-MEL-5 melanoma
Assay: NCI tumour cell line growth inhibition, 48 h

Consider the reported TGI for these molecules:
MOLECULE: CCN1Cc2nc3sc(C)c(C)c3c(=O)n2C=C1C
MEASURED_TARGET: SK-MEL-5 melanoma
TGI: 51.8 µM

MOLECULE: CC(C)Cc1cc2c(cc1O)CCC1C2CC[C@@]2(C)C1CC[C@@H]2O (stereo partly specified)
MEASURED_TARGET: SK-MEL-5 melanoma
TGI: 20.3 µM

MOLECULE: NC12CCC(CC1=O)C2 (stereo unspecified)
MEASURED_TARGET: SK-MEL-5 melanoma
TGI: > 100 µM

MOLECULE: CSc1ccc(/C=C2\N=C(c3ccccc3)N(c3nc4cc(C)c(C)cc4s3)C2=O)cc1
MEASURED_TARGET: SK-MEL-5 melanoma
TGI: 84.5 µM

MOLECULE: COC(=O)C(Cc1nc2ccccc2nc1C)/C(=N\NC(N)=O)C(=O)Nc1cccc([N+](=O)[O-])c1 (stereo unspecified)
MEASURED_TARGET: SK-MEL-5 melanoma
TGI: > 100 µM

MOLECULE: c1ccc2c(c1)NC1(N3CCCCC3)CCCCC21 (stereo unspecified)
MEASURED_TARGET: SK-MEL-5 melanoma
TGI: > 100 µM

MOLECULE: CN1CCC2(CC1)C(=NC1CCCCC1)NC(=S)N2c1ccccc1
MEASURED_TARGET: SK-MEL-5 melanoma
TGI: > 100 µM

MOLECULE: CCOC(=O)c1c2c(c(O)c3ccccc3c(O)n(Cc3ccccc3)c1C)C(=O)C=CC2=O
MEASURED_TARGET: SK-MEL-5 melanoma
TGI: > 100 µM

MOLECULE: COc1ccc(C2CC3(c4ccccc4)ON=C(c4ccccc4)N3c3ccccc3S2)cc1 (stereo unspecified)
MEASURED_TARGET: SK-MEL-5 melanoma
TGI: > 100 µM

MOLECULE: CC(=O)NC(Cc1ccsc1)C(=O)O (stereo unspecified)
MEASURED_TARGET: SK-MEL-5 melanoma
TGI: > 100 µM

Continue with the next molecule.
TGI lookup needed for `COc1ccc(-n2ccnc2-c2cc(OC)c(OC)c(OC)c2)cc1` , thanks.
11.1 µM
